system: PXR homodimer (NR concentration 270 nM); assay: PBM binding z-score (relative to random genomic background probes); higher = stronger binding; sequences stand for … in GC…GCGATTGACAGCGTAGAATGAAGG
readout: PBM binding z-score

>>> df
                            seq_string                             study_target              readout  recorded_value
 0  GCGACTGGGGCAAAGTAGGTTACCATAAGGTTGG  PXR homodimer (NR concentration 270 nM)  PBM binding z-score          -0.231
 1  GCGACGGGGGCAAAGCAGGTTACCATAAGGTTGG  PXR homodimer (NR concentration 270 nM)  PBM binding z-score             1.1
 2  ACAGACGGGTGATGAAGGTAACTCAGGCTATCAT  PXR homodimer (NR concentration 270 nM)  PBM binding z-score          -0.116
 3  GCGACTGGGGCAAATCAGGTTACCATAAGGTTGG  PXR homodimer (NR concentration 270 nM)  PBM binding z-score          -0.422
 4  TAGCCTTGGTCATGCGGGCCAGTATAGTGTCGGC  PXR homodimer (NR concentration 270 nM)  PBM binding z-score           -1.18
 5  ATCGAAAGGTCGAGGAGAGTATAGAGAAAGGGAA  PXR homodimer (NR concentration 270 nM)  PBM binding z-score            0.36
 6  ATCGAAAGTTCGAAGGTGAGTATACCCACCCGAA  PXR homodimer (NR concentration 270 nM)  PBM binding z-score        -0.00599
 7  CCTATTGGGCCATCAGGTCATTGATATCAACGTT  PXR homodimer (NR concentration 270 nM)  PBM binding z-score           0.775
 8  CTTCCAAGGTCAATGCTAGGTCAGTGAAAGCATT  PXR homodimer (NR concentration 270 nM)  PBM binding z-score            1.63
 9  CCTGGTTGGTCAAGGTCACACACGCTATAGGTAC  PXR homodimer (NR concentration 270 nM)  PBM binding z-score            2.85
10  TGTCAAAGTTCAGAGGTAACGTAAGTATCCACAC  PXR homodimer (NR concentration 270 nM)  PBM binding z-score           0.858
11  CGTCCAAGGTCAAGGCCAGTGAAAGAGACTCGAA  PXR homodimer (NR concentration 270 nM)  PBM binding z-score           0.449

* * *

system: PPARg DBDmut:RXRa IVT, anti-PPARg (DBD mutation: PPARg1 K132A/R137A, NR concentration 270 nM, RXRa partner concentration 90 nM); assay: PBM binding z-score (relative to random genomic background probes); higher = stronger binding; sequences stand for … in GC…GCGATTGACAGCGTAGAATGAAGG
readout: PBM binding z-score

>>> print(df.to_string())
                            seq_string              readout  recorded_value
 0  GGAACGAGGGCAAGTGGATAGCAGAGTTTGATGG  PBM binding z-score            0.27
 1  TGAATGAGGTTATATGATCAGGGAACGTTGCAAA  PBM binding z-score            0.22
 2  CCTTACGGGTCAAGGTTATAGCACGGGTGGTACG  PBM binding z-score          0.0487
 3  TTACCAAGGTGAGCTGAGGTCCTTGATCCAACTC  PBM binding z-score          -0.248
 4  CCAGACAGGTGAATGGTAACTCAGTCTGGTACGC  PBM binding z-score          -0.452
 5  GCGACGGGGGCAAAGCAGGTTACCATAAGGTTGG  PBM binding z-score            4.08
 6  GATACAGGATCAGCTAGAGGCCAGAGTATGGAAA  PBM binding z-score          -0.311
 7  ATCGAAAGATCGTGAGGTGAGTATACAGAAAGGC  PBM binding z-score           0.657
 8  ATCTCTAGGTAAAGAGAGTTCAGTGAATGCAAAT  PBM binding z-score           0.459
 9  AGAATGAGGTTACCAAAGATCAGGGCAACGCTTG  PBM binding z-score           0.564
10  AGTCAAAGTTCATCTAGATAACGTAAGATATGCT  PBM binding z-score            1.25
11  CCTACTTGGCCACGAAAGGTCATTGATTCAGTGA  PBM binding z-score           0.246
12  CCTAGCTGGCCAATCTGGGTCACTCAAGGCTTGA  PBM binding z-score           -0.85
13  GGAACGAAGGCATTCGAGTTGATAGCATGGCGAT  PBM binding z-score          -0.596
14  GCTAGCAGGCCATTTGGGTCACTCGATGACGGGC  PBM binding z-score           -0.31
15  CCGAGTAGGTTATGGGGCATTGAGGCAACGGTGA  PBM binding z-score          -0.234
16  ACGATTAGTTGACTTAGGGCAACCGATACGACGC  PBM binding z-score           0.298
17  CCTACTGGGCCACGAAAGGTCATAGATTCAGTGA  PBM binding z-score            0.35
18  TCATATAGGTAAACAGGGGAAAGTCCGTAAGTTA  PBM binding z-score            1.62
19  TCATATAGGTAAAGGCTAGGTGAAAGTCCGATCT  PBM binding z-score            0.56
20  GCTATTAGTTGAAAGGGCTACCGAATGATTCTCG  PBM binding z-score          -0.304
21  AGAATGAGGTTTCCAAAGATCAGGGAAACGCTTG  PBM binding z-score           0.256
22  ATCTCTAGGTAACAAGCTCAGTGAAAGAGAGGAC  PBM binding z-score           0.643
23  ACTATTAGTTGAGACGAGGGCAACCGCTAGGTTG  PBM binding z-score           0.243
24  TGAATGAGGTTATAAGATCAGGGACCGTTGCAAA  PBM binding z-score           0.832
25  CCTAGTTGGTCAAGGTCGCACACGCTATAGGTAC  PBM binding z-score           0.308

* * *

system: PXR homodimer (NR concentration 270 nM); test: PBM binding z-score (relative to random genomic background probes); higher = stronger binding; sequences stand for … in GC…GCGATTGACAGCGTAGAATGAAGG
PBM binding z-score of 0.4 or higher: Criterion met. Under 0.4: Criterion not met.

                            seq_string        class_label
 0  CAAACTAGGTCAGGGTCAAAGTCGGTTTGTGCCA      Criterion met
 1  GCGACTGGGGCAAAACAGGTTACCATAAGGTTGG  Criterion not met
 2  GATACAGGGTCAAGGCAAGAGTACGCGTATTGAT      Criterion met
 3  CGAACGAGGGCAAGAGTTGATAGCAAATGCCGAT  Criterion not met
 4  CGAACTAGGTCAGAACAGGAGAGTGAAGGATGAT  Criterion not met
 5  AGAATGAGGTTACCAAAAATCAGGGAAACGCTTG  Criterion not met
 6  TCTAGTTGGTCACGGTGGTCACACACGACGGGTA  Criterion not met
 7  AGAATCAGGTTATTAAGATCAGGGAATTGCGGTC      Criterion met
 8  TCTTGTAGATGAATAGAGGTTAAGAAAGTGCGCT      Criterion met
 9  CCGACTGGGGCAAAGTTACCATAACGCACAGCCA  Criterion not met
10  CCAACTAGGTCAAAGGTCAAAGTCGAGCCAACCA      Criterion met
11  CCTAGCAGGCCAGGGTCAGTCAAGCATTTCGCTT  Criterion not met

* * *

test system: PPARg:RXRa DBDmut IVT, anti-RXR (DBD mutation: RXRa K156A/R161A, NR concentration 270 nM, RXRa partner concentration 90 nM); assay: PBM binding z-score (relative to random genomic background probes); higher = stronger binding; sequences stand for … in GC…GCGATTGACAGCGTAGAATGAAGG
readout: PBM binding z-score

>>> df
                            seq_string  recorded_value
 0  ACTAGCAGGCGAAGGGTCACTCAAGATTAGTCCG         -0.0679
 1  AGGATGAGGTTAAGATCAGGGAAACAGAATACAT          -0.114
 2  AGAATGAAGTTATTAAGATCAGGGAATTGCGGTC         -0.0627
 3  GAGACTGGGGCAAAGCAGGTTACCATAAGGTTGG            5.26
 4  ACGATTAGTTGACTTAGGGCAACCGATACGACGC          -0.586
 5  ATCTCTAGGTAAGACTCAATTCAGTGAAGAACGC            1.93
 6  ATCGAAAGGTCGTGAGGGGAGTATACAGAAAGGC           0.526
 7  TCTTGTAGATCAAAGGTTAAGAACGCCGAAGCCT            2.38
 8  CCTACTGCGCCAAAAAGGTCATTGATGCCGATAA           0.459
 9  ATACCAAAGTGATCGTGAGGTCGTTGATACTAAC          -0.498
10  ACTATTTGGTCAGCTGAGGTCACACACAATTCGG            1.59
11  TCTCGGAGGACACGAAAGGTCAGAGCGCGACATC            1.45
